Assay: MTD and pharmacokinetics and brain penetration after PO administration
Type: in vivo, Male C57BL/6 Mice
Settings: male, C57BL/6, brain and plasma; Mouse, single administration, D1-50 mg/kg PO
Readout Type: Kp uu
In your answer, state the number alone without any accompanying words.

Reported Kp uu for CN1CCN(c2cccc3nc([C@H]4CCC[C@@H](c5ncccc5Cl)N4)cn23)CC1 (single isomer, unassigned) [Compound I-188] was 0.94

----------
Experiment: Mouse brain uptake assay (pharmacokinetics and brain penetration after IV administration), 0-1 h, 3 time points
Assay type: in vivo, Male CD1 Mice
Settings: male, CD1; Mouse brain, 3 mg/kg IV, time zero to 1 hr; read-out: AUClast (b)
So I've got a bunch of compounds here, and I need their log10 AUC(0-t) values.
Log10 applied to AUC(0-t); unit prior to transform: ng·h/mL.

GET /value?item= CN1CCN(c2cccc3nc([C@H]4CCC[C@@H](c5ncccc5Cl)N4)cn23)CC1 (racemic) &field=log10 AUC(0-t) returns 2.47

The compound listed as `CCN1CCN(c2cccc3nc([C@H]4CCC[C@@H](c5ncccc5C)N4C)c(Br)n23)CC1` has a reported log10 AUC(0-t) of 3.23

Record `Cc1cccnc1[C@@H]1CCC[C@H](c2nc3cccc(N4CCN(C)CC4)n3c2Cl)N1` . Reported log10 AUC(0-t): 3.21

Value of log10 AUC(0-t) reported for the compound `Cc1cccnc1[C@@H]1CCC[C@H](c2nc3cccc(N4CCC(N(C)C)CC4)n3c2Cl)N1C` is 2.31

Entry `Cc1cccnc1[C@@H]1CCC[C@H](c2cn3c(-c4cccnc4)cccc3n2)N1C` , log10 AUC(0-t) reported as 2.51

# log10 AUC(0-t) of `Cc1cccnc1[C@@H]1CCC[C@H](c2nc3cccc(N4CCN(C)CC4)n3c2Cl)N1C` = 3.31

Quick note, log10 AUC(0-t) for `Cc1cccnc1[C@@H]1CCC[C@H](c2cn3c(N4CCN(C)CC4)cccc3n2)N1` landed at 1.88

Measured log10 AUC(0-t) of `Cc1cccnc1[C@@H]1CCC[C@H](c2nc3cccc(N4CCN(C(C)C)CC4)n3c2Br)N1C` : 3.18
